- ASSAYED SYSTEM: ATM kinase (Homo sapiens)
- Construct: endogenous in cells; host or cells: HT29 cells (ECACC #85061109)
- Sequence (Q13315 whole entry): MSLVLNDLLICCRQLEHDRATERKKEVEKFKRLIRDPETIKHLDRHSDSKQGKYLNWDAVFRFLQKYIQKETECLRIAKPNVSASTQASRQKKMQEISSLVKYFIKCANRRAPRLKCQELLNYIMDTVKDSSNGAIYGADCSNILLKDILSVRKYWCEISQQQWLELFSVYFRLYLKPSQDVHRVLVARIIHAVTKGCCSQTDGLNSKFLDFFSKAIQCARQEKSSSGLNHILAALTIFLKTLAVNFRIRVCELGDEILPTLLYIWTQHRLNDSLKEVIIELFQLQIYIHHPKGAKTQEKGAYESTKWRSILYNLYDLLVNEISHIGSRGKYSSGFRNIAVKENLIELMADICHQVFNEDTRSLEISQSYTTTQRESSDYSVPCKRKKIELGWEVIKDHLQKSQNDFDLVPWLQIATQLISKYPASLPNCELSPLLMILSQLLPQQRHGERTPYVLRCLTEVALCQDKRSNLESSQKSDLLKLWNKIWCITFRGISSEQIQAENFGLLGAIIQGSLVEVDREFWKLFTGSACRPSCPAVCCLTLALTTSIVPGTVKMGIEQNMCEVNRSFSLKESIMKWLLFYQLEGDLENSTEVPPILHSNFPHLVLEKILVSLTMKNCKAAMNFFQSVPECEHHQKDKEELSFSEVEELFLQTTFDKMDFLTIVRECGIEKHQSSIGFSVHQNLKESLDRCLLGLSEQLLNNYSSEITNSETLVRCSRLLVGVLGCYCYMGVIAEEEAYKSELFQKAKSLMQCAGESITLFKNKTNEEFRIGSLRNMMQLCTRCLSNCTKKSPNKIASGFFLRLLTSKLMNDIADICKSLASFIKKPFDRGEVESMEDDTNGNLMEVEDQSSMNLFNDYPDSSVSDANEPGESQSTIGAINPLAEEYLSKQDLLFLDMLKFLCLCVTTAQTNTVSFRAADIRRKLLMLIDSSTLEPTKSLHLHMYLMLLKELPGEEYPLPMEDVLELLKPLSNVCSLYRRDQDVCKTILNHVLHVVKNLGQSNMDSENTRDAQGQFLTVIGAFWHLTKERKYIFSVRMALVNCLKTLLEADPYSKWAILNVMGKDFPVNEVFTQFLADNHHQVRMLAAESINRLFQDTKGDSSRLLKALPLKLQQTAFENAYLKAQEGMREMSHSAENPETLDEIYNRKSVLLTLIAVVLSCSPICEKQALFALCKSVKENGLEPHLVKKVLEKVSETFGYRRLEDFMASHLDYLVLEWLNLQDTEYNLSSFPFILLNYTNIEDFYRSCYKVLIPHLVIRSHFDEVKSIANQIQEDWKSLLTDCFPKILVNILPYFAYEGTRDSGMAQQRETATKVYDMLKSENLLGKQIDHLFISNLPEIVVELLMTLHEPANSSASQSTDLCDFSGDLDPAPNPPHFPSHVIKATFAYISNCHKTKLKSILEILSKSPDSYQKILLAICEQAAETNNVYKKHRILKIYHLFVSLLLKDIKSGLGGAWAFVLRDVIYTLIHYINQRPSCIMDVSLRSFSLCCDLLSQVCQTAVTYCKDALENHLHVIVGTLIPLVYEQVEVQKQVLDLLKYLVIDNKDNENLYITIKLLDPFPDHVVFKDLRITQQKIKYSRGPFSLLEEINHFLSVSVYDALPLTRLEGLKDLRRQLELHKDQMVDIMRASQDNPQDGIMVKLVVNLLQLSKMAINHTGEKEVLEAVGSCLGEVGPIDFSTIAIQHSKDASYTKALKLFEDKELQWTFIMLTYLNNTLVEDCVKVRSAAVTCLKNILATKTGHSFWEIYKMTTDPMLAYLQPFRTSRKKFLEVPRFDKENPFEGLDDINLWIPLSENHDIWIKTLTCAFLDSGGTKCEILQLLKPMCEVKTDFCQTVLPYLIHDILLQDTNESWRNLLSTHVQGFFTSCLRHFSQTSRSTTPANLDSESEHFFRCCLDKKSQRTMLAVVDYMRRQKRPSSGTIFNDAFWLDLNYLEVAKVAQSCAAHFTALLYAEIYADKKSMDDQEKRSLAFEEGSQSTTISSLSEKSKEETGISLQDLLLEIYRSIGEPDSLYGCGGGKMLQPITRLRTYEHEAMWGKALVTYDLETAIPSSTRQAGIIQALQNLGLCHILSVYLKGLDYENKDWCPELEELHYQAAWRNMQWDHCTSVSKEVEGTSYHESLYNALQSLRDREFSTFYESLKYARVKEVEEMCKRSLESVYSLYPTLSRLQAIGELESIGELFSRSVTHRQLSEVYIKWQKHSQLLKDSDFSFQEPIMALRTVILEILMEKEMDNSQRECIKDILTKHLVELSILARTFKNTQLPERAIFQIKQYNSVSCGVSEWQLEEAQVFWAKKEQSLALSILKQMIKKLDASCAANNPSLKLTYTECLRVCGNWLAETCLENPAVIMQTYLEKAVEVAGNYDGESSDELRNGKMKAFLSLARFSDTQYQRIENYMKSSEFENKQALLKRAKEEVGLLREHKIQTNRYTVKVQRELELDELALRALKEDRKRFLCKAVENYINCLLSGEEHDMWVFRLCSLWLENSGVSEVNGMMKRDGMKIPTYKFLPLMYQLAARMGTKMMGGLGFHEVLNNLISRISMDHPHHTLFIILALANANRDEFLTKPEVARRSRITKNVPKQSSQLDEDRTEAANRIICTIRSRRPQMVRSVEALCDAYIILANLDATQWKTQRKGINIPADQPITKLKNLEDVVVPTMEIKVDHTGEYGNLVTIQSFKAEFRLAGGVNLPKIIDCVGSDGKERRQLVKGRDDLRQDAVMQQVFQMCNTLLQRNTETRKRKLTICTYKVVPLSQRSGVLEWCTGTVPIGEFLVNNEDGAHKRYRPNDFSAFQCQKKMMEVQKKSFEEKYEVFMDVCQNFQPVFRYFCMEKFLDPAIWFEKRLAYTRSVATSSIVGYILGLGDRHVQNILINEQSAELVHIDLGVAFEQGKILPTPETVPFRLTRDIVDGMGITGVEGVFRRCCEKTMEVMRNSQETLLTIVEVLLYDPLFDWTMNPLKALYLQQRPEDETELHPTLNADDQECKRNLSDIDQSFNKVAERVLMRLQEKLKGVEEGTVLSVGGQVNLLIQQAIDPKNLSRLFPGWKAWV
- ASSAY OVERVIEW: Assay a): ATM cellular potency (pATM Ser1981 in irradiated HT29 cells)
- Type: cell-based
- STUDY CONDITIONS: HT29 cells, X-ray irradiation, pATM Ser1981; Table 2; read-out: Assay a) ATM Cell IC50
ASSAY ENDPOINT: IC50 (nM)
Lab book: enter the figure in nM, no units written.

Consider the compound shown here: CO[C@H]1CC[C@H](n2c(=O)n(C)c3cnc4ccc(-c5ccc(OCCCN(C)C)cc5)cc4c32)CC1 [Example 26] What is its recorded IC50?
0.467

Consider the compound shown here: CO[C@H]1C[C@H](n2c(=O)n(C)c3cnc4ccc(-c5ccc(OCCCN(C)C)cc5)cc4c32)C1 [Example 21] What is its recorded IC50?
0.533

Consider the compound shown here: CO[C@H]1CC[C@H](n2c(=O)n(C)c3cnc4cc(F)c(-c5ccc(OCCCN(C)C)cc5)cc4c32)C1 (single isomer, unassigned) [Example 13] What is its recorded IC50?
1.63

Consider the compound shown here: CO[C@H]1C[C@@H](n2c(=O)n(C)c3cnc4ccc(-c5ccc(OCCCN(C)C)cc5)cc4c32)C1 [Example 11] What is its recorded IC50?
0.647

Consider the compound shown here: CO[C@@H]1CC[C@H](n2c(=O)n(C)c3cnc4cc(F)c(-c5ccc(OCCCN(C)C)cc5)cc4c32)C1 (single isomer, unassigned) [Example 36] What is its recorded IC50?
5.77

Consider the compound shown here: CO[C@H]1CC[C@H](n2c(=O)n(C)c3cnc4ccc(-c5ccc(OCCCN6CCCC6)cc5)cc4c32)C1 (single isomer, unassigned) [Example 19] What is its recorded IC50?
0.29

----------
- ASSAYED SYSTEM: ATR kinase (Homo sapiens, UniProt Q13535)
- Construct: endogenous in cells; host or cells: HT29 cells (ECACC #85061109)
- ASSAY OVERVIEW: Assay b): ATR cellular potency (pChk1 Ser345 in HT29 cells after 4NQO)
- Type: cell-based
- STUDY CONDITIONS: HT29 cells, 4NQO, pChk1 Ser345; Table 2; read-out: Assay b) ATR Cell IC50
ASSAY ENDPOINT: IC50

Consider the molecule shown here: `CN(C)CCOc1ccc(-c2ccc3ncc4c(c3c2)n([C@@H]2CCCOC2)c(=O)n4C)cc1` What is its recorded IC50?
> 26.8 µM

Consider the molecule shown here: `CO[C@H]1CC[C@@H](n2c(=O)n(C)c3cnc4ccc(-c5ccc(OCCCN6CCCC6)cc5)cc4c32)CC1` What is its recorded IC50?
> 18.5 µM

Consider the molecule shown here: `CO[C@H]1C[C@H](n2c(=O)n(C)c3cnc4ccc(-c5ccc(OCCCN(C)C)cc5)cc4c32)C1` What is its recorded IC50?
> 30 µM

Consider the molecule shown here: `CO[C@H]1CC[C@H](n2c(=O)n(C)c3cnc4ccc(-c5ccc(OCCCN6CCCC6)cc5)cc4c32)CC1` What is its recorded IC50?
> 10 µM

Consider the molecule shown here: `CO[C@H]1C[C@@H](n2c(=O)n(C)c3cnc4ccc(-c5ccc(OCCCN6CCCCC6)cc5)cc4c32)C1` What is its recorded IC50?
> 30 µM

Consider the molecule shown here: CO[C@@H]1CC[C@@H](n2c(=O)n(C)c3cnc4cc(F)c(-c5ccc(OCCCN6CCC6)cc5)cc4c32)C1 (single isomer, unassigned) What is its recorded IC50?
> 24.6 µM

Consider the molecule shown here: `CN(C)CCOc1ccc(-c2ccc3ncc4c(c3c2)n(C2CCOCC2)c(=O)n4C)cc1` What is its recorded IC50?
> 24.7 µM
